From: patent US9790213B2

Below, each of the compounds is paired with its reported log10 EC50 value.
# Test system: RSV Long strain (ATCC VR-26)
# protocol_text: Viral cytopathic effect (CPE) assay
# Type: cell-based
# experimental_parameters: human respiratory syncytial virus, 120 h, cell viability after 5 days (Cell Counting kit-8)
parameter: log10 EC50 (log10 of the value in µM)

| record_smiles | experimental_target | parameter | result |
| --- | --- | --- | --- |
| COc1cc(-c2noc(-c3ncn(-c4ccccc4Br)c3C)n2)cc(OC)c1OC | RSV Long strain (ATCC VR-26) | log10 EC50 | -0.22 |
| COc1cc(-c2noc(-c3cn(-c4ccccc4Br)c(C)n3)n2)cc(OC)c1OC | RSV Long strain (ATCC VR-26) | log10 EC50 | -0.11 |
| COc1cc(-c2noc(-c3ncn(-c4c(C)cccc4C)c3C)n2)ccc1C(=O)O | RSV Long strain (ATCC VR-26) | log10 EC50 | -0.12 |
| COc1cc(C(=O)O)ccc1-c1noc(-c2ncn(-c3c(C)cccc3Cl)c2C)n1 | RSV Long strain (ATCC VR-26) | log10 EC50 | 0.27 |
| COc1ccc(OC)c(-c2noc(-c3nc(C)n(-c4ccccc4Cl)c3C)n2)c1 | RSV Long strain (ATCC VR-26) | log10 EC50 | 0.26 |
| COc1cc(-c2noc(-c3ncn(-c4c(C)cccc4C)c3C)n2)cc(OC)c1OC | RSV Long strain (ATCC VR-26) | log10 EC50 | -0.29 |
| COc1cc(-c2noc(-c3ncn(-c4c(C)cccc4Cl)c3C)n2)ccc1C(=O)O | RSV Long strain (ATCC VR-26) | log10 EC50 | -0.23 |
| COc1cc(C(=O)O)ccc1-c1noc(-c2ncn(-c3c(C)cccc3C)c2C)n1 | RSV Long strain (ATCC VR-26) | log10 EC50 | 0.29 |
| COc1cc(-c2noc(-c3nc(CO)n(-c4ccccc4Cl)c3C)n2)cc(OC)c1OC | RSV Long strain (ATCC VR-26) | log10 EC50 | 0.25 |
| COc1ccc(-c2noc(-c3nc(C)n(-c4ccccc4Cl)c3C)n2)cc1 | RSV Long strain (ATCC VR-26) | log10 EC50 | 0.71 |
| COc1ccccc1-c1noc(-c2nc(C)n(-c3ccccc3Cl)c2C)n1 | RSV Long strain (ATCC VR-26) | log10 EC50 | -0.17 |
| COC(=O)c1ccc(-c2noc(-c3nc(C)n(-c4ccccc4Cl)c3C)n2)cc1OC | RSV Long strain (ATCC VR-26) | log10 EC50 | 0.38 |
| COC(=O)c1ccc(-c2noc(-c3nc(C)n(-c4ccccc4Cl)c3C)n2)c(OC)c1 | RSV Long strain (ATCC VR-26) | log10 EC50 | -0.04 |
| COc1ccc(OC)c(-c2noc(-c3nc(C)n(-c4ccccc4Br)c3C)n2)c1 | RSV Long strain (ATCC VR-26) | log10 EC50 | -0.17 |
| COc1cc(-c2noc(-c3nc(C(=O)O)n(-c4ccccc4Cl)c3C)n2)cc(OC)c1OC | RSV Long strain (ATCC VR-26) | log10 EC50 | 0.61 |
| COc1ccc(-c2noc(-c3ncn(-c4c(C)cccc4Cl)c3C)n2)cc1 | RSV Long strain (ATCC VR-26) | log10 EC50 | 0.24 |
| COc1cc(-c2noc(-c3nc(C)n(-c4ccccc4Br)c3C)n2)cc(OC)c1OC | RSV Long strain (ATCC VR-26) | log10 EC50 | -0.30 |
| COC(=O)c1ccc(-c2noc(-c3nc(C)n(-c4ccccc4Cl)c3C)n2)cc1 | RSV Long strain (ATCC VR-26) | log10 EC50 | 0.61 |
| COc1cc(-c2noc(-c3ncc(-c4ccccc4Cl)n3C)n2)cc(OC)c1OC | RSV Long strain (ATCC VR-26) | log10 EC50 | 0.11 |
| COc1cccc(-c2noc(-c3nc(C)n(-c4ccccc4Cl)c3C)n2)c1 | RSV Long strain (ATCC VR-26) | log10 EC50 | 0.78 |
| COc1ccc(-c2noc(-c3nc(C)n(-c4ccccc4Cl)c3C)n2)c(OC)c1 | RSV Long strain (ATCC VR-26) | log10 EC50 | 0.17 |
| COc1ccc(-c2noc(-c3ncn(-c4c(C)cccc4C)c3C)n2)cc1 | RSV Long strain (ATCC VR-26) | log10 EC50 | 0.38 |
| COc1cc(-c2noc(-c3cnc(-c4ccccc4Cl)n3C)n2)cc(OC)c1OC | RSV Long strain (ATCC VR-26) | log10 EC50 | 0.31 |
| COc1ccc(-c2noc(-c3ncn(-c4c(C)cccc4Cl)c3C)n2)c(OC)c1 | RSV Long strain (ATCC VR-26) | log10 EC50 | -0.71 |
| COc1ccccc1-n1c(C)nc(-c2nc(-c3cc(OC)c(OC)c(OC)c3)no2)c1C | RSV Long strain (ATCC VR-26) | log10 EC50 | 0.32 |
| COc1cc(-c2noc(-c3nc(C)n(-c4ccccc4Cl)c3C)n2)cc(OC)c1OC | RSV Long strain (ATCC VR-26) | log10 EC50 | 0.20 |
| COc1cc(-c2noc(-c3ncn(-c4c(C)cccc4Cl)c3C)n2)cc(OC)c1OC | RSV Long strain (ATCC VR-26) | log10 EC50 | -0.66 |
| COc1ccc(-c2noc(-c3ncn(-c4c(C)cccc4C)c3C)n2)c(OC)c1 | RSV Long strain (ATCC VR-26) | log10 EC50 | -0.44 |
| Cc1nc(-c2nc(-c3ccc(C(=O)O)cc3)no2)c(C)n1-c1ccccc1Cl | RSV Long strain (ATCC VR-26) | log10 EC50 | 0.49 |
| COc1cc(-c2noc(-c3nc(Br)n(-c4ccccc4Cl)c3C)n2)cc(OC)c1OC | RSV Long strain (ATCC VR-26) | log10 EC50 | -0.11 |
| COc1ccc(-c2noc(-c3nc(C)n(-c4ccccc4Cl)c3C)n2)c(F)c1 | RSV Long strain (ATCC VR-26) | log10 EC50 | 0.48 |
| COC(=O)c1ccc(-c2noc(-c3nc(C)n(-c4ccccc4Cl)c3C)n2)cc1C | RSV Long strain (ATCC VR-26) | log10 EC50 | 0.73 |
